Target: human BACE-1 (Homo sapiens)
Assay: in vitro BACE Assay-1 (CEREP, fluorogenic substrate)
Assay type: biochemical
Conditions: test compound at 10 μM
experimental_endpoint: inhibition at 10 µM (%)

Reference set (3 entries):
molecule: Cn1ccnc1N(CCC(C)(C)C)C(=O)CCC(c1cc2cc(-c3ccccn3)ccc2nc1N)C1CCOCC1 (stereo not shown)
unit_descriptor: %
observed_measurement: 91

molecule: COc1ccccc1-c1cc2cc(C(CCn3cc(C(C)(C)C)nn3)C3CCOCC3)c(N)nc2cc1OC (stereo not shown)
unit_descriptor: %
observed_measurement: 92

molecule: CC(C)(C)CCN(Cc1ccccn1)C(=O)CCC(c1cc2cc(-c3ccccc3F)ccc2nc1N)C1CCOCC1 (stereo not shown)
unit_descriptor: %
observed_measurement: 116

[P] CC(C)(C)CCN(Cc1ccccc1)C(=O)CCC(c1cc2cc(-c3ccccc3F)ccc2nc1N)C1CCOCC1 (stereo not shown)
[Q] Cn1ccnc1CN(CCC(C)(C)C)C(=O)CCC(c1cc2cc(-c3cccs3)ccc2nc1N)C1CCOCC1 (stereo not shown)
Thinking about recorded inhibition at 10 µM values, which is higher, P or Q ? Write the label of whichever entry you select.
Q

---

Target: human BACE-1 (Homo sapiens)
Experiment: in vitro BACE Assay-1 (CEREP, fluorogenic substrate)
Type: biochemical
Settings: test compound at 10 μM
experimental_endpoint: % Inh @ 10 μM (%)

Reference set (3 entries):
compound: CN(CCCC(c1cc2cc(-c3ccccc3F)ccc2nc1N)C1CCOCC1)CC1CCCCC1 (stereo not drawn)
unit_descriptor: %
% Inh @ 10 μM: 77
--
compound: Nc1nc2ccc(-c3ccccc3F)cc2cc1C(CCC(=O)NCCO)C1CCOCC1 (stereo not drawn)
unit_descriptor: %
% Inh @ 10 μM: 34
--
compound: Cn1ccnc1CN(CCC(C)(C)C)C(=O)CCC(c1cc2cc(-c3cccc4cc[nH]c34)ccc2nc1N)C1CCOCC1 (stereo not drawn)
unit_descriptor: %
% Inh @ 10 μM: 99

[a] Cn1ccnc1CN(CCC(C)(C)C)C(=O)CCC(c1cc2cc(-c3ccc(F)cc3)ccc2nc1N)C1CCOCC1 (stereo not drawn)
[b] Cn1ccnc1CN(CCC(C)(C)C)C(=O)CCC(c1cc2cc(-c3cccc(C(F)(F)F)c3)ccc2nc1N)C1CCOCC1 (stereo not drawn)
[c] COc1cc2nc(N)c(C(CCC(=O)NCCC(C)(C)C)C3CCOCC3)cc2cc1-c1ccccc1F (stereo not drawn)
[d] CCOc1ccc(-c2ccc3nc(N)c(C(CCC(=O)N(CCC(C)(C)C)Cc4nccn4C)C4CCOCC4)cc3c2)cc1 (stereo not drawn)
# ascending order, key=% Inh @ 10 μM Please respond by ranking the labels in the order requested.
b, c, d, a

[A] CN(CC1CCCCC1)C(=O)CCC(c1cc2cc(-c3ccccc3F)ccc2nc1N)C1CCOCC1 (stereo not drawn)
[B] CN(CCCC(c1cc2cc(-c3ccccc3F)ccc2nc1N)C1CCOCC1)CC1CC1 (stereo not drawn)
Between A and B , which one has the lower reported % Inh @ 10 μM value? Write the label of whichever entry you select.
B
(B: 35%, A: 77%)

---

Biological target: human BACE-1 (Homo sapiens, UniProt P56817)
Sequence (P56817 46-501): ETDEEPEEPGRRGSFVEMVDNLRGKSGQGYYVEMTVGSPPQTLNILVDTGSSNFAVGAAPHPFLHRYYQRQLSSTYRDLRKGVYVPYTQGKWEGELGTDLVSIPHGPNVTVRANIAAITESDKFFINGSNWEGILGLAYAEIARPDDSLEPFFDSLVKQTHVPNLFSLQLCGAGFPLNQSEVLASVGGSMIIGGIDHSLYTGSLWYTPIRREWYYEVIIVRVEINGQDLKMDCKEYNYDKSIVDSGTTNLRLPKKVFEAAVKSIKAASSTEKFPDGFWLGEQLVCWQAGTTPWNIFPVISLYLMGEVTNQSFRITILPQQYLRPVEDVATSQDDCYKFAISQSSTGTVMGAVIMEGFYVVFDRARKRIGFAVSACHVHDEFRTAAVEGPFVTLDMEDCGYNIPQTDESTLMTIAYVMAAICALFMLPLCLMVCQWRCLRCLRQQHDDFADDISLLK
Experiment: in vitro BACE Assay-1 (CEREP, fluorogenic substrate)
Assay type: biochemical
Conditions: test compound at 10 μM
Text: This assay was run by CEREP (Catalog Ref. 761-B, Referred to SOP No. 1C131; ERMOLIEFF, J., LOY, J. A., KOELSCH, G. and TANG, J., Proteolytic activation of recombinant pro-memapsin 2 (pro-BACE) studied with new fluorogenic substrates, Biochemistry, (2000) Vol. 39, p. 12450). […]
experimental_endpoint: inhibition at 10 µM (%)

Reference set (2 entries):
molecule: COc1cc2nc(N)c(C(CCn3cc(C(C)(C)C)nn3)C3CCOCC3)cc2cc1-c1ccccc1F (stereo not shown)
tested_on: human BACE-1 (Homo sapiens, UniProt P56817)
observed_measurement: 73

molecule: COc1cc2nc(N)c(C(CCCN(CCN3CCOCC3)C3CCCCC3)C3CCOCC3)cc2cc1-c1ccccc1F (stereo not shown)
tested_on: human BACE-1 (Homo sapiens, UniProt P56817)
observed_measurement: 55

[P] CC(C)(C)CCNC(=O)CCC(c1cc2cc(-c3ccccc3F)ccc2nc1N)C1CCOCC1 (stereo not shown)
[Q] COc1cc2nc(N)c(C(CCC(=O)N(CCN3CCOCC3)C3CCCCC3)C3CCOCC3)cc2cc1-c1ccccc1F (stereo not shown)
Thinking about recorded inhibition at 10 µM values, which is higher, P or Q ? Write the label of whichever entry you select.
P
(P: 83%, Q: 55%)
